B1: Myocardin, residues 363 to 406; numbered along this chain, Q8IZQ8 (parent)
chain: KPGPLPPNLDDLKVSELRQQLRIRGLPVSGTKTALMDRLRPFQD

Variants of: B1
experiment: abundance fitness (aPCA) (normalised: wild type 0, dead -1); higher = more abundant; growth selection in yeast, the domain comes from the species named
condition summary: Homo sapiens
readout name: abundance fitness
Answers are plain numbers.

mutation label	abundance fitness
D10P	-0.552
D11T	0.135
K32F	-0.642

Give one value of abundance fitness per listed variant.
1. L5W
2. G3P
3. G3T
4. R18K
5. K1G

output:
[-0.984, -0.265, 0.099, 0.032, -0.47]
